target: Tyrosine-protein kinase HCK (Homo sapiens); settings: at 1 µM;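 note: values are averaged percent inhibition of HCK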
# if value of inhibition reaches 8%, tag Yes; if it stays below, tag No

Q: Is the recorded value of inhibition equal to or greater than 8% for this compound? CN(C)CCNC(=O)Nc1ccc(N(C)c2ccnc(Nc3ccc(CS(C)(=O)=O)cc3)n2)cc1
Ans: Yes

Q: Similarly, CS(=O)(=O)CCNCc1ccc(-c2ccc3ncnc(Nc4ccc(OCc5cccc(C(F)(F)F)c5)cc4)c3c2)o1 ?
Ans: Yes

Further cases:
Q: hey, is inhibition for this one >= 8%? CCCNc1cccc(-n2ncc3c(N/N=C/c4ccncc4)ncnc32)c1
Ans: Yes

Q: Entry CS(=O)(=O)Nc1ccc(-c2ccc3c(NC(=O)C4CC4)n[nH]c3c2)cc1 please
Ans: Yes

Q: # repeat for CC1=C(C(=O)Nc2ccc3[nH]nc(C)c3c2)C(c2ccc(C(F)(F)F)cc2)CC(=O)N1 (stereo not drawn)
Ans: Yes

Q: CCS(=O)(=O)c1ccc(OC)c(Nc2ncc(-c3cccc(C(C)=O)c3)o2)c1 ?
Ans: Yes

Q: # repeat for CCN1CCC(C(=O)Nc2n[nH]c3nnc(-c4cccc(F)c4F)cc23)CC1
Ans: No

Q: Similarly, CCn1c(-c2nonc2N)nc2cncc(C(=O)NCCNC)c21 ?
Ans: No

Q: How about this compound: O=C(O[C@H]1CN[C@H](C#Cc2cc3ncnc(Nc4ccc5c(ccn5Cc5cc(F)ccc5F)c4)c3s2)C1)N1CCOCC1
Ans: Yes

Q: Can you check N#Cc1ccc2c(-c3ccnc(NC4CC4)n3)c(-c3ccc(F)cc3)nn2c1 next?
Ans: No

Q: NC(=O)c1ccc2c(-c3ccnc(NCCCO)n3)c(-c3ccc(F)cc3)nn2c1 ?
Ans: Yes

Q: Now consider CNC(=O)c1cncc(/C=C/c2ccccc2C)c1 .
Ans: Yes

Q: Next compound: CNC(=O)c1ncccc1Nc1nc(Nc2cc3c(cc2OC)CCCN3C(=O)CN(C)C)nc2[nH]ccc12
Ans: Yes

Q: Lookup COc1cc(Nc2ncc(-c3ccccc3)o2)cc(OC)c1
Ans: Yes

----------
test system: Tyrosine-protein kinase ABL1 (Homo sapiens), P00519 [T315I]; details: at 1 µM
# inhibition annotations
The response must be a number in % with no trailing unit.

The examples below pair each entry with its known result.
Q: For the compound CS(=O)(=O)Nc1ccc(-c2ccc3c(NC(=O)C4CC4)n[nH]c3c2)cc1 , what inhibition is on record?
Ans: 16.9

Q: Entry COc1cc(N2CCN(C(C)C)CC2)ccc1Nc1nc(Nc2cccc(F)c2C(=O)O)c2cc[nH]c2n1 please
Ans: 7.98

Q: Repeat with c1ccc(-c2n[nH]cc2-c2ccnc(-c3ccc(OCCn4ccnc4)cc3)c2)nc1
Ans: 7.34

Q: Queued: O=C(O[C@H]1CN[C@H](C#Cc2cc3ncnc(Nc4ccc5c(ccn5Cc5cc(F)ccc5F)c4)c3s2)C1)N1CCOCC1
Ans: 3.69

Q: For CC1=C(C(=O)Nc2ccc3[nH]nc(C)c3c2)C(c2ccc(C(F)(F)F)cc2)CC(=O)N1 (centres undefined) then?
Ans: 2.86

More entries:
Q: Could you share which inhibition value was measured for NC(=O)c1ccc2c(-c3ccnc(NCCCO)n3)c(-c3ccc(F)cc3)nn2c1 ?
Ans: 6.37

Q: // repeat for CNC(=O)c1cncc(/C=C/c2ccccc2C)c1 and report
Ans: 4.28

Q: Entry O=C(Nc1n[nH]c2nnc(-c3cccnc3)cc12)C1CC1 please
Ans: 3.43

Q: What do you get for Cc1nnc(-c2cccc(-c3ccc(C(=O)NCC4CC4)cc3)c2)o1 ?
Ans: 5.17
